SYSTEM TESTED: BSA (UniProt P02769)
Sequence (P02769 25-607 limits assumed): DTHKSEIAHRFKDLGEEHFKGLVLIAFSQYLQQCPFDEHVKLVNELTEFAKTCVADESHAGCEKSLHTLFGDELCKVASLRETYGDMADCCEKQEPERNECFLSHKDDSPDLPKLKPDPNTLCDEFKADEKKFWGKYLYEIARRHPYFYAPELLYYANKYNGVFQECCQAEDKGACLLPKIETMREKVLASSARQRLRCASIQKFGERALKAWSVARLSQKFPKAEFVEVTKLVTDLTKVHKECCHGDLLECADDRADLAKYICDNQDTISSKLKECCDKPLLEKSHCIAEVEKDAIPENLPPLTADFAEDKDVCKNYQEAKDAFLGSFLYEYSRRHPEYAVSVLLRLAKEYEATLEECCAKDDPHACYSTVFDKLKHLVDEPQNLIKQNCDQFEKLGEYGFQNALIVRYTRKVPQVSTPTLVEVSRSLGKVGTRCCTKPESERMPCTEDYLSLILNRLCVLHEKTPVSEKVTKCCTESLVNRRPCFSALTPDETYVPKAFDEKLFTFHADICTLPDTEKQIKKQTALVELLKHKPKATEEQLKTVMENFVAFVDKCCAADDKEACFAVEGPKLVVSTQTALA
ASSAY TEXT: scFv ELISA
The entries below are paired with their reported OD450.
Just the number please, in OD450, no unit attached.

[
  {
    "BINDER": "PcOxP_DB02_C06 (scFv, V domains shown, scFv in periplasmic extract) VH: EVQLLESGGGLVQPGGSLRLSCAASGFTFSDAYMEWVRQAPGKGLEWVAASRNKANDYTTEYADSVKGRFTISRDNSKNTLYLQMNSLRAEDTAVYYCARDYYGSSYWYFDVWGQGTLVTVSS VL: DIQMTQSPSSLSASVGDRVTITCTASEWLYSSKHKVHYLAWYQQKPGKAPKLLIYGASNRNIGVPSRFSGSGSGTDFTLTISSLQPEDFATYYCAQFYYYPLTFGGGTKVEIK",
    "OD450 [OD450]": 0.11
  },
  {
    "BINDER": "PcOxP_DB01_E01 (scFv, V domains shown, scFv in periplasmic extract) VH: EVQLLESGGGLVQPGGSLRLSCAASGFTSSDFYMEWVRQAPGKGLEWVAASRNKANDYTTEYADSVKGRFTISRDNSKNTLYLQMNSLRAEDTAVYYCARDYYGSSYWYFDVWGQGTLVTVSS VL: DIVMTQSPDSLAVSLGERATINCTASESLYSSKHKVHYLAWYQQKPGQPPKLLIYGASNRVIGVPDRFSGSGSGTDFTLTISSLQAEDVAVYYCANFYSYPLTFGGGTKVEIK",
    "OD450 [OD450]": 0.05
  }
]

Let's switch to this binder now.
Qu. Quick one: give measured OD450 for PcOxP_DB01_B04 (scFv, V domains shown, scFv in periplasmic extract) VH: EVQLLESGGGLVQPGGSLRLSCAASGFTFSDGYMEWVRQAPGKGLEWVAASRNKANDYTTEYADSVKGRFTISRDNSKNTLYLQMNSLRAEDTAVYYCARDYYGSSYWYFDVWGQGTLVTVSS VL: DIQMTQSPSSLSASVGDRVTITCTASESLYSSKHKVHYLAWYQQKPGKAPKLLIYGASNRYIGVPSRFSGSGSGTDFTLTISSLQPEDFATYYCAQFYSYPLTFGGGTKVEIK
Ans. 0.08
